Tested on: NCI-H226
measurement-description: NCI tumour cell line growth inhibition, 48 h
Active and inactive are the calls of the source. Cut-off read from the data, not from the text of the source: active = GI50 up to about 1.1 µM and inactive = higher.
Give your call using only these classes: 1 = active, 0 = inactive

Consider the following illustrative entries.
{"molecule": "CCNC1C2(CCCCC2)NC(=O)C12CCCCC2 (configuration not stated)", "category": 0}
{"molecule": "O=C(O)c1cc(Cl)cc2c1NC1(N2)C(=O)Nc2ccccc21 (configuration not stated)", "category": 0}
{"molecule": "CC1=CC(=O)/C(=C/Nc2nc(-c3cccc([N+](=O)[O-])c3)cs2)C(=O)O1", "category": 0}
{"molecule": "O=C(NNc1cn[nH]c(=O)n1)c1cccc2nc3ccccc3nc12", "category": 0}
{"molecule": "COc1ccccc1/N=N/C(C(=O)c1ccccc1)C(=O)c1ccccc1", "category": 0}

Ask: Which result was noted for this molecule in the test: C#CCn1c(=O)c(C#N)c(O)c2cc3ccccc3nc21
Result: 0

Ask: Given O=C(CC(=O)Nc1ccc(Cl)cc1)NNCC(=O)Nc1nc(-c2ccccc2)cs1 , state the outcome it received in this test.
Result: 0
